Source of measurements: patent US20260070975A1

tested-on: T1, His-tagged CSF1R extracellular domain (UniProt P07333 20-517, limits assumed)
T1 construct: extracellular domain; also called c-Kit family member; not shown: His tag
protocol-description: ELISA, His-tagged extracellular domain coated

binder	binding result
hSR1-3 (antibody, human IgG1, kappa, V domains shown, also called humanized SR1-3; hSR1-H2b / hSR1-L2) VH: QVQLVQSGAEVKKPGASVKVSCKASGYTFTSYNMHWVRQAPGQGLEWMGVIYSGNGDTSYAQKFQGRVTMTADKSTSTAYMELSSLRSEDTAVYYCARERDTRFGNWGQGTLVTVSS VL: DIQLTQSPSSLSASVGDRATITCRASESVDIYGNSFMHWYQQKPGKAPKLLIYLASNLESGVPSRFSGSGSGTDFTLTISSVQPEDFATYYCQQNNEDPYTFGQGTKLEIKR	no binding
hSR1-5 (antibody, human IgG1, kappa, V domains shown, also called humanized SR1-5; hSR1-H2 / hSR1-L2r) VH: QVQLVQSGAEVKKPGASVKVSCKASGYTFTSYNMHWVRQAPGQGLEWMGVIYSGNGDTSYAQKFQGRVTMTADTSTSTAYMELSSLRSEDTAVYYCARERDTRFGNWGQGTLVTVSS VL: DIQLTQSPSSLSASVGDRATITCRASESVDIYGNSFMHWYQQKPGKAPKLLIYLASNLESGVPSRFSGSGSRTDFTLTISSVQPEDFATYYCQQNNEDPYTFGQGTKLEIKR	no binding
hSR1-2 (antibody, human IgG1, kappa, V domains shown, also called humanized SR1-2; hSR1-H3 / hSR1-L2) VH: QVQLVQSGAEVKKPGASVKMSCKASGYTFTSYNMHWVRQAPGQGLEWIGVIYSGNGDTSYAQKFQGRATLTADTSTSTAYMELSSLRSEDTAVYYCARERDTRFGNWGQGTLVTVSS VL: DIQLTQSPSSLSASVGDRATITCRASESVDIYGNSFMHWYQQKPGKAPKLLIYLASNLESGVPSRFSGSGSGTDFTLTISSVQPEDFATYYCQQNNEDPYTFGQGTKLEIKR	no binding
